Each entry below carries its recorded pIC50.
- target.under.test: recombinant human ERG potassium channels (Homo sapiens)
- Sequence (Q12809 whole entry): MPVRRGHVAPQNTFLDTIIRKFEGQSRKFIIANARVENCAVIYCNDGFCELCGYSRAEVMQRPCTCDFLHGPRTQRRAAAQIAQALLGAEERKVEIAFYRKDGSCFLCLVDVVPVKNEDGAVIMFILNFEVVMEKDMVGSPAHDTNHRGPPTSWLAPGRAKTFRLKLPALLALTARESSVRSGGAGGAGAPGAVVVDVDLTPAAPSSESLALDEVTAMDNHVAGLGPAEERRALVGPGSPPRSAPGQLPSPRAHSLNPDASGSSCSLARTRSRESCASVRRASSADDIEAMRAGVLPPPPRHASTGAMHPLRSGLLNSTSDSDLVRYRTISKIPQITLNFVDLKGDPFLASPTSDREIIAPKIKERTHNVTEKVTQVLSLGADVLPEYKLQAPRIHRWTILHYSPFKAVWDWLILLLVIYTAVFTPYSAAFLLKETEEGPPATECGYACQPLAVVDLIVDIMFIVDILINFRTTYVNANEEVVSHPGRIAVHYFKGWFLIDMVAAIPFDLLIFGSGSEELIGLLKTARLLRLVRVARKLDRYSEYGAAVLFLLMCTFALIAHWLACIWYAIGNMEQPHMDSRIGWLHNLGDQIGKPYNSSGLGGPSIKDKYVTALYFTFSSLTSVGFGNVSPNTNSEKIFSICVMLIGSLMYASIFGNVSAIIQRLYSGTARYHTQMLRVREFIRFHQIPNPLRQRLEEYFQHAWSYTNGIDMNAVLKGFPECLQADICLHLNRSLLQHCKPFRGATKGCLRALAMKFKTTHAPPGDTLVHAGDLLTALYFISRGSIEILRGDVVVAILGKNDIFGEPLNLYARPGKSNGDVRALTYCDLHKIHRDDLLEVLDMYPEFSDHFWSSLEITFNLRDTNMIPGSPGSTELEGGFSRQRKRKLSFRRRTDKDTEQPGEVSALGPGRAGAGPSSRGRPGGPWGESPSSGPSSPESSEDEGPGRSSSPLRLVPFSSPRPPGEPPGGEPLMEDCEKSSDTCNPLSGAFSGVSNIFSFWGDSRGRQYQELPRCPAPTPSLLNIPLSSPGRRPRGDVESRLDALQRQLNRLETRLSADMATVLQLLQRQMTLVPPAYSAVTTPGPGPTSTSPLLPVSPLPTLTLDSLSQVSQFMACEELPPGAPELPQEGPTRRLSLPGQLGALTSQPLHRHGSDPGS
- assay.protocol: Inhibition of the HERG K+ channel, whole-cell patch-clamp, transfected CHO cells
- stated.conditions: concentrations above 10 μM not tested
pIC50: −log10 of the molar value.
recorded.metric: pIC50

| molecule | target.under.test | recorded.metric | value.observed |
| --- | --- | --- | --- |
| Cc1ccc(OC2CCN(CCS(=O)(=O)c3ccc(O)cc3)CC2)cc1 [Compound 2] | recombinant human ERG potassium channels (Homo sapiens) | pIC50 | 5.33 |
| O=S(=O)(CCN1CCC(Cc2ccccc2)CC1)c1ccc(O)cc1 [Compound 1] | recombinant human ERG potassium channels (Homo sapiens) | pIC50 | 5.40 |
| Cc1ccc(C[C@H]2CCN(CCS(=O)(=O)c3ccc(O)cc3)C[C@H]2O)cc1 (single isomer, unassigned) [Compound 6] | recombinant human ERG potassium channels (Homo sapiens) | pIC50 | 5.43 |
| Cc1ccc(CC2(O)CCN(CCOc3ccc(O)cc3)CC2)cc1 [Compound 9, reference compound] | recombinant human ERG potassium channels (Homo sapiens) | pIC50 | 6.16 |

###

Reported pIC50 by item:
- target.under.test: NMDA NR1 + NR2A (Homo sapiens, UniProt Q05586+Q12879)
- Sequence (Q12879 23-1464, other chains not shown): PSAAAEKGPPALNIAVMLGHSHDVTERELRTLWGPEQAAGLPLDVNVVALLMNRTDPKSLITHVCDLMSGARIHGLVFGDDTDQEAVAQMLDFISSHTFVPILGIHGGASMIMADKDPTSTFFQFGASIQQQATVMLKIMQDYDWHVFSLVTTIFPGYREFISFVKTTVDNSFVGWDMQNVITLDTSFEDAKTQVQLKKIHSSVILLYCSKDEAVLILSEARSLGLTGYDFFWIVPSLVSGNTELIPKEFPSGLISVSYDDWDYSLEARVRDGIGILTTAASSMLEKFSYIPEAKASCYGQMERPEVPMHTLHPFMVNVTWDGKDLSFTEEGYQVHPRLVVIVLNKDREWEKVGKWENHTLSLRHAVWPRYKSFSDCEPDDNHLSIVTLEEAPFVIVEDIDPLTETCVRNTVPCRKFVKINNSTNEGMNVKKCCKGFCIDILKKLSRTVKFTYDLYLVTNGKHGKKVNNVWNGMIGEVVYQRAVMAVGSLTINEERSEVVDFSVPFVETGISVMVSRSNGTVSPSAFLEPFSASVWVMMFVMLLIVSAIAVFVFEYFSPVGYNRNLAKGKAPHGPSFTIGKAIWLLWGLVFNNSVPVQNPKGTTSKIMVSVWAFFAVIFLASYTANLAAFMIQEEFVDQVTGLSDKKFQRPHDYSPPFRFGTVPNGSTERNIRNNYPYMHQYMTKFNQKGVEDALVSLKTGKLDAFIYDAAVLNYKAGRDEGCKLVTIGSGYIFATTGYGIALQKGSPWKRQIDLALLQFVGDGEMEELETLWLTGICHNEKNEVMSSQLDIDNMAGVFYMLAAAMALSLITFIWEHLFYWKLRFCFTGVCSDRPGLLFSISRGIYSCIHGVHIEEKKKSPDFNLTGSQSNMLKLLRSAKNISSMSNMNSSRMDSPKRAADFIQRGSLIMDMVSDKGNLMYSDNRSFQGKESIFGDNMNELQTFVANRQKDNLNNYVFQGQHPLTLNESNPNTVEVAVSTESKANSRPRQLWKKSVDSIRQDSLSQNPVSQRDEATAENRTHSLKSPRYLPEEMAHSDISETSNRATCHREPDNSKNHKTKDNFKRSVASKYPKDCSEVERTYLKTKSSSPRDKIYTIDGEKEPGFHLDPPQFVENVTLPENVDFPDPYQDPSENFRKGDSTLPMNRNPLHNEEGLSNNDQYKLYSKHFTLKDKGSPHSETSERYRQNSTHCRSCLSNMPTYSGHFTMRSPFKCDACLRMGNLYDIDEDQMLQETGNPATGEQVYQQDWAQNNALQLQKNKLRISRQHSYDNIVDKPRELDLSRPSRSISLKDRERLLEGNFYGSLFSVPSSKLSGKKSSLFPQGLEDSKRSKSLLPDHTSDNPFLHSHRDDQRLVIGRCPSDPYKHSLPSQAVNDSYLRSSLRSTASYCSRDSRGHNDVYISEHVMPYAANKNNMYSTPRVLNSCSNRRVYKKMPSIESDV
- assay.protocol: Block of recombinant NMDA receptor subtype NR1 + NR2A expressed in Xenopus oocytes
pIC50: −log10 of the molar value.
recorded.metric: pIC50

| compound | value.observed |
| --- | --- |
| O=S(=O)(CCN1CCC(Cc2ccccc2)CC1)c1ccc(O)cc1 | < 5.00 |
| Cc1ccc(CC2(O)CCN(CCOc3ccc(O)cc3)CC2)cc1 [Compound 9, reference compound] | < 4.00 |
| Cc1ccc(C[C@H]2CCN(CCS(=O)(=O)c3ccc(O)cc3)C[C@H]2O)cc1 (single isomer, unassigned) | < 5.00 |
| Cc1ccc(OC2CCN(CCS(=O)(=O)c3ccc(O)cc3)CC2)cc1 | < 5.00 |
| O=S(=O)(CCN1CC[C@H](Cc2ccccc2)[C@H](O)C1)c1ccc(O)cc1 | < 5.00 |
